The reported numbers originate from ChEMBL document CHEMBL1201862.

Assign GI50 to each entry below.
test system: SK-MEL-5; assay: NCI tumour cell line growth inhibition, 48 h
The source made the active and inactive calls. Cut-off read from the data, not from the text of the source: active = GI50 up to about 1.1 µM and inactive = higher.

Example results:
compound: O=C(O)Cc1ccc(Oc2nc3ccccc3nc2-c2ccccc2)cc1
test-target: SK-MEL-5
GI50: 59.6 µM (inactive)

compound: N#Cc1sc2c(c1OC(=O)c1cccs1)c(=O)n(-c1ccccc1)c(=S)n2-c1ccccc1
test-target: SK-MEL-5
GI50: 16 µM (inactive)

compound: O=C1C2Cc3ccccc3CN2C(=O)N1CCN1CCCC1 (centres undefined)
test-target: SK-MEL-5
GI50: > 100 µM (inactive)

compound: Cc1cc(=O)oc2cc3c(cc12)Oc1ccccc1O3
test-target: SK-MEL-5
GI50: > 100 µM (inactive)

compound: CCn1c2ccccc2c2ccc(C3C4C(=O)N(c5cccc6ccccc56)C(=O)C4ON3C(C(N)=O)c3ccccc3)cc21 (centres undefined)
test-target: SK-MEL-5
GI50: 14.2 µM (inactive)

For every item below, please supply its GI50.
1. O=C1CCN2CCC(=O)c3c2c(cc2ccccc32)N1
2. CN1/C(=N\c2ccccc2)S/C1=N/c1ccccc1
3. COC(=O)C(Cc1ccccc1)NC(=O)CNC(=O)CSc1nnc(COc2ccc(Cl)cc2)n1-c1ccccc1 (centres undefined)

Reply |
> 100 µM (inactive)
28.9 µM (inactive)
16.1 µM (inactive)

Lab note: CN(C(=O)C12C3C4(C(=O)O)C1(C(=O)N(C)C(C)(C)C)C1C2(C(=O)O)C3(C(=O)N(C)C(C)(C)C)C14C(=O)N(C)C(C)(C)C)C(C)(C)C (centres undefined) gave GI50 of > 100 µM (inactive)

---

tested on: UO-31; test: NCI tumour cell line growth inhibition, 48 h
The source made the active and inactive calls. Cut-off read from the data, not from the text of the source: active = GI50 up to about 1.1 µM and inactive = higher.
I would appreciate it if you answered using one of these outcomes: active, inactive

compound: CCOC(=O)C1(C(=O)OCC)OC(C)=NC1(C(=O)OC)C(=O)OC
assigned-label: inactive

Ask | Write down the call the test reported for this compound. Item: N#Cc1c(NC(=S)NCc2ccccc2)sc2c1CCN(N1CCc3c(sc(NC(=S)NCc4ccccc4)c3C#N)C1)C2
Reply | inactive

Ask | Write down the call the test reported for this compound. Item: CCOP(=O)(OCC)/C(C#N)=C/c1ccc(-c2ccc(F)cc2F)o1
Reply | inactive

Ask | Write down the call the test reported for this compound. Item: CCOC(=O)C1Cc2ccc3c4c(ccc(c24)C1)CC(C(=O)OCC)C3
Reply | inactive

Ask | Write down the call the test reported for this compound. Item: CN(C)CCSc1cc(-c2ccccc2)c2ccccc2n1
Reply | inactive

Ask | Write down the call the test reported for this compound. Item: NC(Cc1ccc(S(=O)(=O)O)cc1)C(=O)NC(Cc1ccc(S(=O)(=O)O)cc1)C(=O)NC(Cc1ccc(S(=O)(=O)O)cc1)C(=O)NC(Cc1ccc(S(=O)(=O)O)cc1)C(=O)O (configuration not stated)
Reply | inactive

Ask | Write down the call the test reported for this compound. Item: C=C(C)C1CC2C(C)=C(OC(C)=O)C1n1c(=O)c3cc4ccccc4cc3c(=O)n12 (configuration not stated)
Reply | inactive

Ask | Write down the call the test reported for this compound. Item: CC12Oc3ccc4ccccc4c3CC1Cc1c(ccc3ccccc13)O2 (configuration not stated)
Reply | inactive

Ask | Write down the call the test reported for this compound. Item: CCOP(=O)(OCC)C(C)(C)OC(=O)NC(F)(F)F
Reply | inactive

Ask | Write down the call the test reported for this compound. Item: Brc1ccc(-c2nnc(-c3nn(-c4ccccc4)c4nc5ccccc5nc34)o2)cc1
Reply | inactive

Ask | Write down the call the test reported for this compound. Item: O=[N+]([O-])c1cc(Cl)ccc1S(=O)(=O)c1ccc(Cl)cc1[N+](=O)[O-]
Reply | inactive

Ask | Write down the call the test reported for this compound. Item: Cc1n[nH]c(=O)n1/N=C/c1ccc([N+](=O)[O-])o1
Reply | inactive

Ask | Write down the call the test reported for this compound. Item: CNC(=O)CCC(NC(C)=O)C(=O)NC(Cc1ccc(NC(=O)CCCCC(C)=O)cc1)C(=O)NC(CCC(=O)NC)C(=O)NC (configuration not stated)
Reply | inactive

Ask | Write down the call the test reported for this compound. Item: CCOC(=O)C1=C(C)N(C2OC(COC(C)=O)C(OC(C)=O)C(OC(C)=O)C2OC(C)=O)C(=O)NC1c1ccccc1 (configuration not stated)
Reply | inactive

Ask | Write down the call the test reported for this compound. Item: O=C1CSC(c2cccs2)N1c1nc2cc3sc(N4C(=O)CSC4c4cccs4)nc3cc2s1 (configuration not stated)
Reply | inactive

---

tested on: SN12C; experiment: NCI tumour cell line growth inhibition, 48 h
Activity calls are given as the source filed them. Cut-off read from the data, not from the text of the source: active = GI50 up to about 1.1 µM and inactive = higher.
measured-metric: GI50

Example results:
compound: CCOC(=O)Nn1c(C)nnc1CC#N
GI50: > 100 µM (inactive)
--
compound: O=S(=O)(c1cc(Cl)ccc1Cl)N1CCN(c2cccc(Cl)c2)CC1
GI50: > 100 µM (inactive)
--
compound: CCOC(=O)C1=C(Nc2ccccc2)SC/C1=N\NC(=O)Cc1ccccc1
GI50: > 100 µM (inactive)
--
compound: C[C@H](NC1=C(Cl)C(=O)c2c(O)ccc(O)c2C1=O)C(=O)Nc1ccc([N+](=O)[O-])cc1
GI50: 1.6 µM (inactive)
--
compound: COc1ccc2c(N=[N+]=[N-])c(-c3ccccc3)c(=O)oc2c1
GI50: 61.1 µM (inactive)
--
compound: S=C1CC(c2ccccc2)Sc2ccc(Cl)cc2N1 (stereo unspecified)
GI50: 94 µM (inactive)
--
compound: Fc1ccc(C2NC(=S)NC3=C2CCOc2c3ccc3ccccc23)cc1 (stereo unspecified)
GI50: 94.8 µM (inactive)
--
compound: CCOC(=O)N/N=C(\CC)OCC
GI50: > 100 µM (inactive)
--
compound: Nc1ncnc2c1nnn2C1CCC(CP(=O)(O)O)C1 (stereo unspecified)
GI50: > 100 µM (inactive)
--
compound: c1ccc2c(c1)ccc1nc(-c3ccc4c(c3)OCO4)c3c(c12)CCCC3
GI50: 26.1 µM (inactive)

Consider the record given below.
Lab note: O=c1nc(N2CCNCC2)oc2cc(Cl)oc(=O)c12 gave GI50 of 6.11 µM (inactive)

---

tested on: HL-60; experiment: NCI tumour cell line growth inhibition, 48 h
Active and inactive are the calls of the source. Rule as the data show it: active = GI50 up to about 1.1 µM and inactive = higher.
measured-metric: GI50

Example results:
molecule: N/N=C(/C(=O)Nc1cccc(Cl)c1)C(C(=O)c1ccc(O)cc1O)C1OC(=O)c2ccccc21 (stereo not given)
obs-value: > 100 µM (inactive)

molecule: O=C(CC1C(=O)c2ccccc2C1=C1C(=O)c2ccccc2C1=O)c1ccccc1 (stereo not given)
obs-value: 44.6 µM (inactive)

molecule: O=C(CC1C(=O)Nc2ccccc2[S+]1[O-])Nc1cccc(Cl)c1 (stereo not given)
obs-value: > 33.5 µM (inactive)

molecule: COc1ccc(CCN(C)C2CCC(C#N)(c3ccc(OC)c(OC)c3)CC2)cc1OC (stereo not given)
obs-value: 71 µM (inactive)

molecule: O=S1(=O)Cc2ccc3c4c2-c2c(ccc5ccc(c-4c25)CS(=O)(=O)C3)C1
obs-value: 16.3 µM (inactive)

molecule: CC1(C)CC2(C)ON=C(c3ccccc3)N2c2ccccc2N1 (stereo not given)
obs-value: 19.7 µM (inactive)

molecule: COc1ccccc1/C=C1\Sc2scc(-c3cccc([N+](=O)[O-])c3)[n+]2C1=O
obs-value: 0.26 µM (active)

molecule: C/C=C1\CCC2c3[nH]c4ccccc4c3CCN2C1 (stereo not given)
obs-value: 43.3 µM (inactive)

molecule: COc1c2ccoc2cc2oc(=O)ccc12
obs-value: > 100 µM (inactive)

Consider the record given below.
Lab note: CC(=O)NC(CCCNC(=O)N(CCCl)N=O)C(=O)NCc1ccccc1 (stereo not given) gave GI50 of 24 µM (inactive)

---

Assign GI50 to each entry below.
system: EKVX; assay: NCI tumour cell line growth inhibition, 48 h
Active and inactive are the calls of the source. Cut-off read from the data, not from the text of the source: active = GI50 up to about 1.1 µM and inactive = higher.

molecule: Cc1cccc(N2C(=O)C3c4[nH]c5ccccc5c4C4CCC(C(C)(C)C)CC4C3C2=O)c1C (stereo unspecified)
measured-metric: GI50
obs-value: 29.7 µM (inactive)
//
molecule: Nc1ncnc2c1nnn2C1CCC(CP(=O)(O)O)C1 (stereo unspecified)
measured-metric: GI50
obs-value: > 100 µM (inactive)
//
molecule: CCOc1ccc(NCC2CC/C(=C\c3ccc(Cl)cc3)C2=O)cc1 (stereo unspecified)
measured-metric: GI50
obs-value: 38.6 µM (inactive)

For every item below, please supply its GI50.
1. CS(=O)(=O)Nc1ccc2c(c1)N(S(C)(=O)=O)CC2CCl (stereo unspecified)
2. O=C1c2cc([N+](=O)[O-])cnc2S(=O)(=O)N1c1ccc(Br)cc1
3. Cc1nc(N)c(N2CCN([N+](=O)[O-])CC2)c(O)n1
4. Cc1ccc(O)c(C(=O)/C=C/c2ccccc2)c1
5. CCOC(=O)CC(NC(=O)c1nc[nH]c1[N+](=O)[O-])C(=O)OCC (stereo unspecified)

Reply |
1. > 100 µM (inactive)
2. > 100 µM (inactive)
3. > 100 µM (inactive)
4. > 100 µM (inactive)
5. 50.1 µM (inactive)

For every item below, please supply its GI50.
1. CCCCCCCCCCCCCCCc1ccc(OCC(O)CO)cc1 (stereo unspecified)
2. COc1cc2c(cc1C)NC(=O)/C2=C/c1cccnc1
3. CCOC(=O)c1ccc(N2C(=O)/C(=C/c3ccc(N(CCC#N)CCC#N)cc3)N=C2c2cc([N+](=O)[O-])ccc2Cl)cc1
4. CCN(CC)CCC(=O)N1C/C(=C/c2ccccc2)C(=O)/C(=C\c2ccccc2)C1
5. [N-]=[N+]=Nc1cccc(-c2nnc(Cl)cc2O)c1
6. CCOP(=O)(OCC)C(Cc1ccccc1)N=C(c1ccccc1)c1ccccc1 (stereo unspecified)
7. COc1ccc(C(=C[N+](=O)[O-])c2ccc(OC)cc2)cc1
8. CN(C)CCNC(=O)c1ccc(Cl)c2cc3ccccc3nc12

Reply |
1. 31.9 µM (inactive)
2. 18.3 µM (inactive)
3. > 100 µM (inactive)
4. 3.42 µM (inactive)
5. > 100 µM (inactive)
6. 18 µM (inactive)
7. 42.3 µM (inactive)
8. 1.7 µM (inactive)
